target: histamine-(H1)-receptor (Cavia porcellus); construct: Segments of the ileum 1.5 cm long from Dunkin Hartley guinea pigs; from tissue; host or cells: isolated ileum of Dunkin Hartley guinea pigs; test: Histamine-(H1)-receptor antagonism in vitro, histamine-induced contractions of isolated ileum; format: cell-based, guinea pig (Dunkin Hartley); details: 0.5 min; test substance 10^-6 mole/l, histamine 5 × 10^-6 mole/l, after 30 seconds; read-out: % inhibition of histamine-induced ileum contractions after 30 seconds
Sequence (P31389 whole entry): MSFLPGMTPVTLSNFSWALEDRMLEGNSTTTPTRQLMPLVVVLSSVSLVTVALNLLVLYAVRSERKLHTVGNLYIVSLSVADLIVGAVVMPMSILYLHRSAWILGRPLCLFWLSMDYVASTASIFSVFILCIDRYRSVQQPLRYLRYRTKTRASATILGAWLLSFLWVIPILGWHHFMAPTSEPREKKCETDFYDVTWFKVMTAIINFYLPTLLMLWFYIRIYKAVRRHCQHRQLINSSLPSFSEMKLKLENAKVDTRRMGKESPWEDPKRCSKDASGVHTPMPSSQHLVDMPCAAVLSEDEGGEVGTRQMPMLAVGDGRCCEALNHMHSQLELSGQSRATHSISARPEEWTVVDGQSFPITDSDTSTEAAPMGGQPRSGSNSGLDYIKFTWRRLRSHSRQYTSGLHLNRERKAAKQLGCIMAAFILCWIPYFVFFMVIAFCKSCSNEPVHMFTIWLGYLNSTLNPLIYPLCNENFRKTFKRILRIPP
Measured Metric: inhibition at 1 µM (%)

compound="Cc1ccnc(N2CCN(CCCC3Sc4ccccc4NC3=S)CC2)c1 (stereo not shown)" unit_spec=% obs_value=32
compound="Cc1ccnc(N2CCN(CCCCC3Sc4ccccc4NC3=S)CC2)c1 (stereo not shown)" unit_spec=% obs_value=51
compound="COc1ccc2c(c1)SC(CCCCN1CCN(c3cc(C)ccn3)CC1)C(=O)N2 (stereo not shown)" unit_spec=% obs_value=60
compound="Cc1ccnc(N2CCN(CCCCC3Oc4ccc(Cl)cc4NC3=O)CC2)c1 (stereo not shown)" unit_spec=% obs_value=70
compound="Cc1ccnc(N2CCN(CCCCC3Sc4cc(O)ccc4NC3=O)CC2)c1 (stereo not shown)" unit_spec=% obs_value=50
compound="COc1cccc(N2CCN(CCCCC3Sc4ccccc4NC3=O)CC2)n1 (stereo not shown)" unit_spec=% obs_value=30
compound="Cc1ccnc(N2CCN(CCCCC3Oc4ccc(C)cc4NC3=O)CC2)c1 (stereo not shown)" unit_spec=% obs_value=70

----------
Molecular target: 5-lipoxygenase (Mus musculus, UniProt P48999)
Construct: A cell suspension containing peritoneal cells from male mice 8-10 weeks old was obtained in a known manner; endogenous in cells; host or cells: mouse peritoneal macrophages (primary, adherent)
Sequence (P48999 1-674): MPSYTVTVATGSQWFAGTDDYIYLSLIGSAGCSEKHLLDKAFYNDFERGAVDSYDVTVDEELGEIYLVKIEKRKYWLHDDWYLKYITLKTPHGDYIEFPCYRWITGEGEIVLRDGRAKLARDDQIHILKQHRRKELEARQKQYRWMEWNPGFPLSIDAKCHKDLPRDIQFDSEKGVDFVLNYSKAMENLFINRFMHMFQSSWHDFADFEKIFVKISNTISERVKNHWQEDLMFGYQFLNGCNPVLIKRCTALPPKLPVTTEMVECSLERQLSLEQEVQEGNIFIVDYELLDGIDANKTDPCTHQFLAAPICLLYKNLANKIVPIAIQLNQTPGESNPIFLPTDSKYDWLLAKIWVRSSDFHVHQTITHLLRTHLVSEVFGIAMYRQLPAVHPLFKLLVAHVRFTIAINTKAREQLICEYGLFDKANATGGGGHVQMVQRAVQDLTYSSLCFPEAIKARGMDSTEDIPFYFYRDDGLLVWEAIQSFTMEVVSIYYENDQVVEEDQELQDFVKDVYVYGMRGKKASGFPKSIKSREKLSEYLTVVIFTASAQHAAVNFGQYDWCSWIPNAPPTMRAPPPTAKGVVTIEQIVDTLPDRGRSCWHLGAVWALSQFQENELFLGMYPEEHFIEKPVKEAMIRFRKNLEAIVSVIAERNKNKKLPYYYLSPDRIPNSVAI
Experiment: In vitro 5-lipoxygenase inhibition, release of LTC4 from zymosan-stimulated peritoneal macrophages
Type: cell-based
Settings: zymosan-stimulated mouse peritoneal macrophage cells, 10^-5 mole/l
Reported % inhibition upon release of LTC4 values follow for various compounds
Measured Metric: % inhibition upon release of LTC4 (%)

compound="Cc1ccnc(N2CCN(CCCCC3Sc4ccccc4NC3=O)CC2)c1 (stereo not drawn)" measured_metric="% inhibition upon release of LTC4" obs_value=48
compound="Cc1ccnc(N2CCN(CCCC3Oc4ccccc4NC3=O)CC2)c1 (stereo not drawn)" measured_metric="% inhibition upon release of LTC4" obs_value=65
compound="Cc1ccnc(N2CCN(CCCCC3Oc4ccccc4NC3=O)CC2)c1 (stereo not drawn)" measured_metric="% inhibition upon release of LTC4" obs_value=46
compound="Cc1ccnc(N2CCN(C3Sc4ccccc4NC3=O)CC2)c1 (stereo not drawn)" measured_metric="% inhibition upon release of LTC4" obs_value=72
compound="O=C1Nc2ccccc2SC1CCCN1CCN(c2ccc(Cl)cn2)CC1 (stereo not drawn)" measured_metric="% inhibition upon release of LTC4" obs_value=9
compound="Cc1ccnc(N2CCN(CCCC3Sc4ccccc4NC3=S)CC2)c1 (stereo not drawn)" measured_metric="% inhibition upon release of LTC4" obs_value=42
